Recorded GI50 for the following compounds
- Test system: SK-MEL-5
- Assay Info: NCI tumour cell line growth inhibition, 48 h
Activity calls are given as the source filed them. No stated cut-off is given here; in the data, active = GI50 up to about 1.1 µM and inactive = higher.

Some entries whose results are on file:
Compound	GI50
O=C(c1cc(Cl)ccc1Cl)N1CCN(C(=O)c2cc(Cl)ccc2Cl)CC1	55.6 µM (inactive)
Cn1nc(C(=O)N2CC(CCl)c3c2cc([N+](=O)[O-])c2ccccc32)cc1NC(=O)Nc1cc(C(=O)N2CC(CCl)c3c2cc([N+](=O)[O-])c2ccccc32)nn1C (centres undefined)	> 100 µM (inactive)
CC(C)(C)OC(=O)Nc1cc(-c2ccccc2)co1	96.8 µM (inactive)

Pending compound:
GI50 for O=C1CSC2(CC(/C=C/c3ccccc3[N+](=O)[O-])=NN2c2cccc(S(=O)(=O)O)c2)N1c1nc2ccccc2s1 (centres undefined) ?
25.4 µM (inactive)

###

- Test system: BT-549
- Assay Info: NCI tumour cell line growth inhibition, 48 h
Activity calls are given as the source filed them. Rule as the data show it: active = GI50 up to about 1.1 µM and inactive = higher.
Recorded GI50 for the following compounds

Compound	GI50
Nc1nc(Cl)c(N)c(NCC2(CO)CC(Cc3ccccc3)C2)n1 (stereo unspecified)	42.5 µM (inactive)
Cc1cc(S(=O)(=O)Nc2nc(N)n(-c3ccccn3)n2)c(S)cc1Cl	> 100 µM (inactive)

GI50 for O=C1C[S+]([O-])C23c4cc5ccccc5n4CCC2CCCN13 (stereo unspecified) ?
> 100 µM (inactive)

GI50 for C=CC(CBr)CCC(Br)C(C)(C)Br (stereo unspecified) ?
> 10 µM (inactive)

GI50 for Cc1cc(C)c(N)c(CO)c1 ?
> 100 µM (inactive)

###

- Tested on: T47D
- Assay Info: NCI tumour cell line growth inhibition, 48 h
The source made the active and inactive calls. No stated cut-off is given here; in the data, active = GI50 up to about 1.1 µM and inactive = higher.
Recorded GI50 for the following molecules

Some entries whose results are on file:
Molecule	GI50
COC(=O)CCC(=O)NC1=C(Nc2ccccc2)C(=O)c2ccccc2C1=O	13.3 µM (inactive)
CC12CCC(C(=O)OC1=O)C(C)(C)O2 (centres undefined)	> 100 µM (inactive)
COC(=O)C1C(O)C(C)C(O)C(C)C=C(C)C2=C3C(=C(C)C(=O)c4c(O)c(c(C)c(OC(C)=O)c43)NC(=O)C(C)=C/C=C\C(C)C(O)C(C)C1O)OCO2 (centres undefined)	31 µM (inactive)
CC1CC[C@@]2(OC1)OC1C[C@H]3[C@@H]4C/C(=N\N(C)C)[C@@]5(O)CC(O)CC[C@]5(C)[C@H]4CC[C@]3(C)C1[C@@H]2C (some centres undefined)	31.5 µM (inactive)

Pending molecule:
GI50 for CCC(N)(C(=O)O)C(C)C (centres undefined) ?
> 100 µM (inactive)

###

- Tested on: HCC 2998
- Assay Info: NCI tumour cell line growth inhibition, 48 h
Activity calls are given as the source filed them. Cut-off read from the data, not from the text of the source: active = GI50 up to about 1.1 µM and inactive = higher.
Use one of these outcomes when replying: 1 (active), 0 (inactive)

Some entries whose results are on file:
Compound	Group Label
CCc1cccc(C)c1NC(=O)CCc1nnc(SC)o1	0
CCCCCCCCCCCCC(O)C(=O)O (stereo not drawn)	0
COc1ccccc1OCC(=N/NC(=O)c1ccncc1)/N=C/c1ccncc1	0
[Se]=P(c1ccccc1)(c1ccccc1)c1ccc(C(c2ccccc2)=P(c2ccccc2)(c2ccccc2)c2ccccc2)cc1	1
[O-][S+]1Cc2ccccc2CSS1 (stereo not drawn)	0

Assay outcome for Cc1cc(NCC2CC/C(=C\C=C\c3ccccc3)C2=O)no1 (stereo not drawn) : what was it?
0

Assay outcome for N#Cc1c(-c2ccco2)cc(-c2ccc(NCc3nc4ccccc4[nH]3)cc2)nc1N : what was it?
0

Assay outcome for OCCc1ccsc1-c1sc(-c2cc(CCO)c(-c3sccc3CCO)s2)cc1CCO : what was it?
0
